Recorded values, source patent US20240197902A1.

TESTED_ON: K55A
ASSAY_METHOD_TEXT: SPR; 37 C
pKd: −log10 of the molar value.
OBSERVATION_TYPE: pKd

BMP10 (ligand) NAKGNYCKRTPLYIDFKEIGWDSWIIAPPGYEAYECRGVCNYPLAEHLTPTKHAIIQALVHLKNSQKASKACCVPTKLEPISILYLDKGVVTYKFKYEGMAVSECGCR :: 10.64

a. BMP9 (ligand) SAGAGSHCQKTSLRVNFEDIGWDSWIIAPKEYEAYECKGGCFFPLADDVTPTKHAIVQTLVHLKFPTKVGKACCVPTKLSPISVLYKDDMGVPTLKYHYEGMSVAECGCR
b. GDF11 (ligand) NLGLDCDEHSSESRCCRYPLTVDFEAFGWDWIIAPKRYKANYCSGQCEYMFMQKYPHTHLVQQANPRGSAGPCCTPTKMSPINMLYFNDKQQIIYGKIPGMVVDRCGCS
c. Activin A (ligand) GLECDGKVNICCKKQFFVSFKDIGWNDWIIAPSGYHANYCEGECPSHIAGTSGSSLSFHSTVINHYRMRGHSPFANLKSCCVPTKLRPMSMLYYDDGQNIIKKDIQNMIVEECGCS
[in] Reorder: pKd, max to min. Response field: labels, in requested order.
[out] b, c, a
